Source of measurements: patent US9145415B2

target_system: human FLT3 protein (FLT3 (WT)) (Homo sapiens, UniProt P36888)
Construct: human FLT3 protein (intracellular region, 564 to 993 aa); GST; purchased Carna Biosciences; host or cells: baculovirus expression system
Sequence (P36888 564-993): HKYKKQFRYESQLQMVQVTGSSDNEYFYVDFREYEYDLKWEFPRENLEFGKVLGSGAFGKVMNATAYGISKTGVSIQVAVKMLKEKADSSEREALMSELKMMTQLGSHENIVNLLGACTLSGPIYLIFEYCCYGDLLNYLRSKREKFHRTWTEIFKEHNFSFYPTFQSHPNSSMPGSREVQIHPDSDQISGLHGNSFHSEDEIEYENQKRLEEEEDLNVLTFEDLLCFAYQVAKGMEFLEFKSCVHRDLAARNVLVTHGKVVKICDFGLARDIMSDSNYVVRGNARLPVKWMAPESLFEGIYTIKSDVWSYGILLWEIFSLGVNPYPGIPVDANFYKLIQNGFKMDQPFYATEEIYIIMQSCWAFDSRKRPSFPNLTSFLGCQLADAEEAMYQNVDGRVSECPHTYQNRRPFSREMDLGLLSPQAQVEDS
test_summary: FLT3 inhibition test (FLT3 enzyme inhibition, time-resolved fluorescence of substrate peptide phosphorylation)
Assay type: biochemical
measurement_parameters: GST-fused human FLT3 (564 to 993 aa), ATP 50 μM; read-out: FLT3 (WT) enzyme inhibition activity
Procedure: The FLT3 inhibition test was performed for the compounds of the present invention by the method described below. A reaction mixture in a volume of 9 μL containing the FLT3 protein and a test compound of a predetermined concentration (1.2 μg of FLT3, 100 mM HEPES, 10 mM MgCl2, 25 mM NaCl, 0.01% BSA, 1 mM DTT, pH 7.5) was left standing at 25° C. for 15 minutes. […]
pIC50: −log10 of the molar value.
Measured pIC50 accompanies every entry in the list below.
measure: pIC50

> print(dat)
                                    compound                             target.system  measure      measured
 1  C[C@@H](C(=O)N[C@H]1C[C@@H](C#Cc2cnc(Nc3ccc(C#N)cc3)nc2NC2CC2)C1)N(C)C(=O)/C=C/CN(C)C (relative stereo) [Compound 15-8]  human FLT3 protein (FLT3 (WT)) (Homo sapiens, UniProt P36888)    pIC50        > 8.00
 2  CCNc1nc(Nc2ccc3c(cnn3C)c2)ncc1C#CCCCNC(=O)[C@H](C)N(C)C(=O)/C=C/CN(C)C [Compound 10-53]  human FLT3 protein (FLT3 (WT)) (Homo sapiens, UniProt P36888)    pIC50        > 8.00
 3  CCCNc1nc(Nc2ccnc(OC)c2)ncc1C#CCCCNC(=O)CN(C)C(=O)/C=C/CN(C)C [Compound 9-38]  human FLT3 protein (FLT3 (WT)) (Homo sapiens, UniProt P36888)    pIC50        > 8.00
 4  COCCCNc1nc(Nc2ccc3[nH]ncc3c2)ncc1C#CCCCNC(=O)[C@@H]1CCCN1C(=O)/C=C/CN(C)C [Compound 10-68]  human FLT3 protein (FLT3 (WT)) (Homo sapiens, UniProt P36888)    pIC50        > 8.00
 5  C/C=C/C(=O)N(C)[C@@H](C)C(=O)Nc1cccc(NC(=O)c2cnc(Nc3ccc(C(N)=O)cc3)nc2NCCC)c1 [Compound 3-9]  human FLT3 protein (FLT3 (WT)) (Homo sapiens, UniProt P36888)    pIC50        > 8.00
 6  COc1nc(Nc2ccc(C#N)cc2)ncc1C#C[C@@H]1CCC[C@H](NC(=O)[C@H](C)N(C)C(=O)/C=C/CN(C)C)C1 [Compound 15-1]  human FLT3 protein (FLT3 (WT)) (Homo sapiens, UniProt P36888)    pIC50        > 8.00
 7  CCCNc1nc(NCCc2ccncc2)ncc1C#Cc1cccc(NC(=O)[C@H](C)N(C)C(=O)/C=C/CN(C)C)c1 [Compound 8-6]  human FLT3 protein (FLT3 (WT)) (Homo sapiens, UniProt P36888)    pIC50        > 8.00
 8  C=CC(=O)NCC(=O)N1CCC(NC(=O)c2cnc(NCCc3ccncc3)nc2NCCC)C1 (stereo not shown) [Compound 6-17]  human FLT3 protein (FLT3 (WT)) (Homo sapiens, UniProt P36888)    pIC50  7.00 to 8.00
 9  CCCNc1nc(Nc2ccnc(F)c2)ncc1C#CCCCNC(=O)[C@H](CC)N(C)C(=O)/C=C/CN(C)C [Compound 9-18]  human FLT3 protein (FLT3 (WT)) (Homo sapiens, UniProt P36888)    pIC50        > 8.00
10  C=CC(=O)N(C)CC(=O)NCCCNC(=O)c1cnc(Nc2ccc3cnccc3c2)nc1NCCC [Compound 6-6]  human FLT3 protein (FLT3 (WT)) (Homo sapiens, UniProt P36888)    pIC50        > 8.00
11  CCCNc1nc(Nc2ccc(C#N)cc2)ncc1C#CCCCNC(=O)CN(CC(C)C)C(=O)/C=C/CN(C)C [Compound 7-65]  human FLT3 protein (FLT3 (WT)) (Homo sapiens, UniProt P36888)    pIC50        > 8.00
12  CNc1nc(Nc2cccc(C#N)c2)ncc1C#C[C@H]1C[C@@H](NC(=O)[C@H](C)N(C)C(=O)/C=C/CN(C)C)C1 [Compound 13-15]  human FLT3 protein (FLT3 (WT)) (Homo sapiens, UniProt P36888)    pIC50        > 8.00
13  C=CC(=O)NCCC(=O)NCCNC(=O)c1cnc(NCCc2ccncc2)nc1NCCC [Compound 2-19]  human FLT3 protein (FLT3 (WT)) (Homo sapiens, UniProt P36888)    pIC50  7.00 to 8.00
